Value source: the Human Domainome abundance scans (Beltran et al. 2025)

B1: DnaJ homolog subfamily C member 2, residues 451 to 503; numbered along this chain, Q99543 (parent)
chain: SKNWSEDDLQLLIKAVNLFPAGTNSRWEVIANYMNIHSSSGVKRTAKDVIGKA

Variants of: B1
measurement.description: abundance fitness (aPCA) (normalised: wild type 0, dead -1); higher = more abundant; growth selection in yeast, the domain comes from the species named
experimental.context: Homo sapiens
Entry flag: Y if abundance fitness reaches -0.2; N if it does not.

Evaluate SKNWSEDDLQLLIKAVNLFPAGTNSRWEVIANYMNIHSSSGVKRTAKDVIMKA [G51M] : abundance fitness at minimum -0.2? Y

Evaluate SKNWSEDDLQLLIKAVNLFPAGTNSRWEVIANYMNIHSSSGVKRTAKDVIGKL [A53L] : abundance fitness at minimum -0.2? N

Evaluate SKNWSEDDLQLLIKAVNLFPAGTNSRWEVIANYMLIHSSSGVKRTAKDVIGKA [N35L] : abundance fitness at minimum -0.2? N

Evaluate SKNWSEDDLQLLIKAVNLFPAGTNYRWEVIANYMNIHSSSGVKRTAKDVIGKA [S25Y] : abundance fitness at minimum -0.2? N

Evaluate SKNWSEDDLQLLIKAVNLFPAGTNSRWEVIANYMNIHSSSGVKRTAKDVIYKA [G51Y] : abundance fitness at minimum -0.2? Y

Evaluate SKNWSEDDLQLLIKAVNLFPAGTNSRWEVIAEYMNIHSSSGVKRTAKDVIGKA [N32E] : abundance fitness at minimum -0.2? Y

Evaluate SKNWSEDDLQLLIKAVNLFPAGTNSRWEVIANYMNIHSSFGVKRTAKDVIGKA [S40F] : abundance fitness at minimum -0.2? N

Evaluate SKNWSEDDLQLLIKAVNLFPAQTNSRWEVIANYMNIHSSSGVKRTAKDVIGKA [G22Q] : abundance fitness at minimum -0.2? N

Evaluate SKNWSEDDLQLLIKAVNLFPAGTNSRWEVIANYMHIHSSSGVKRTAKDVIGKA [N35H] : abundance fitness at minimum -0.2? N

Evaluate SMNWSEDDLQLLIKAVNLFPAGTNSRWEVIANYMNIHSSSGVKRTAKDVIGKA [K2M] : abundance fitness at minimum -0.2? Y

Evaluate SKNWSEDDLQLLIKAVNLFPAGANSRWEVIANYMNIHSSSGVKRTAKDVIGKA [T23A] : abundance fitness at minimum -0.2? N

Evaluate SKNWSEDDIQLLIKAVNLFPAGTNSRWEVIANYMNIHSSSGVKRTAKDVIGKA [L9I] : abundance fitness at minimum -0.2? Y

Evaluate SKNWSEDDLQLLIKAVNLFPAGTNSRWEVIANYMNIHSSSGVKRTEKDVIGKA [A46E] : abundance fitness at minimum -0.2? Y

Evaluate SKNWSEDDCQLLIKAVNLFPAGTNSRWEVIANYMNIHSSSGVKRTAKDVIGKA [L9C] : abundance fitness at minimum -0.2? Y

Evaluate SKNWSEDTLQLLIKAVNLFPAGTNSRWEVIANYMNIHSSSGVKRTAKDVIGKA [D8T] : abundance fitness at minimum -0.2? Y

Evaluate SKNWSEDDLQLLIKAVNLFPAGTNSRWEVTANYMNIHSSSGVKRTAKDVIGKA [I30T] : abundance fitness at minimum -0.2? N

Evaluate SKNWSEDDLQLLIEAVNLFPAGTNSRWEVIANYMNIHSSSGVKRTAKDVIGKA [K14E] : abundance fitness at minimum -0.2? Y

Evaluate SKNWSEDDLQLLIKAVNLFPAYTNSRWEVIANYMNIHSSSGVKRTAKDVIGKA [G22Y] : abundance fitness at minimum -0.2? N

Evaluate SKNWSEDDLQLLIKAVNLFPAGTNSRWEVIANYMNWHSSSGVKRTAKDVIGKA [I36W] : abundance fitness at minimum -0.2? Y

Evaluate SKNWSEDDLQLLIKAVNLFPMGTNSRWEVIANYMNIHSSSGVKRTAKDVIGKA [A21M] : abundance fitness at minimum -0.2? Y

Evaluate SKNWSEDDLQLLIKAVFLFPAGTNSRWEVIANYMNIHSSSGVKRTAKDVIGKA [N17F] : abundance fitness at minimum -0.2? N

Evaluate SKNWSEDDLQLLIKAVNLFPAGTNSRWEVIANYMNIHSSSGVIRTAKDVIGKA [K43I] : abundance fitness at minimum -0.2? Y
